- Test system: Platelet
- experiment-notes: Inhibition of ADP-induced platelet aggregation in human platelet rich plasma
- Type: functional
Listed next: entries and their corresponding IC50.

Known IC50 results, listed for orientation:
compound: O=C(Nc1cccc(OCc2ccc(F)cc2)c1)C1CCCNC1 (stereo unspecified)
IC50: 103 µM

compound: O=C(Nc1cccc(OCc2ccccc2)c1)C1CCNCC1
IC50: 229 µM

compound: CCCCCCOc1ccc(NC(=O)C2CCCNC2)cc1 (stereo unspecified)
IC50: 85 µM

compound: O=C(Nc1ccc(OCc2ccc(F)cc2)cc1)C1CCCNC1 (stereo unspecified)
IC50: 116 µM

Test system Platelet; read-out IC50; what value for CCCCCCOc1cccc(NC(=O)C2CCCNC2)c1 (stereo unspecified) ? 113 µM

Moving on to the next compound: O=C(Nc1cccc(OCc2ccc(-c3ccc(F)cc3F)cc2)c1)C1CCNCC1 98.8 µM

Moving on to the next compound: O=C(Nc1cccc(OCc2ccccc2)c1)C1CCCNC1 (stereo unspecified) 128 µM

Moving on to the next compound: O=C(Nc1ccc(OCc2ccc(-c3ccccc3)cc2)cc1)C1CCNCC1 135 µM

Moving on to the next compound: N=C(N)N1CCCC(C(=O)Nc2cccc(OCc3ccc(F)cc3)c2)C1 (stereo unspecified) 274 µM

Moving on to the next compound: O=C(Nc1ccc(OCc2ccc(-c3ccccc3)cc2)cc1)C1CCCNC1 (stereo unspecified) 125 µM

Moving on to the next compound: O=C(Nc1cccc(OCc2ccc(-c3cc(F)c(F)c(F)c3)cc2)c1)C1CCNCC1 76.7 µM

----------
- target-desc: Coagulation factor X (Homo sapiens)
- Sequence (P00742 41-179 limits assumed): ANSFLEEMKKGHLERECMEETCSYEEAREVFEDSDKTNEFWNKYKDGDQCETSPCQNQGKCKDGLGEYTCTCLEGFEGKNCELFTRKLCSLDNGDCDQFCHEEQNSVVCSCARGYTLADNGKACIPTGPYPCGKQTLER
- Sequence (P00742 235-488 limits assumed): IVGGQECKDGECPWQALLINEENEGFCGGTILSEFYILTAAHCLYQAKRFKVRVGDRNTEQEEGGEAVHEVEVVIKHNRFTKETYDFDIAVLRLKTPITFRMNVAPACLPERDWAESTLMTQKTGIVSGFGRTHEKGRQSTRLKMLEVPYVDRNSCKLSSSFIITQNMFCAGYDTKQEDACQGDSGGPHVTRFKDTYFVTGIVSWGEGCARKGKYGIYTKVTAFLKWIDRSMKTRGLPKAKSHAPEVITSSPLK
pKi: −log10 of the molar value.
Is pKi at least 5? Then yes. If not, no.

molecule: N=C(N)N1CCCC(C(=O)Nc2cccc(OCc3ccc(F)cc3)c2)C1 (stereo not given)
group-label: no

Hi team, for O=C(Nc1cccc(OCc2ccc(-c3ccc(F)cc3F)cc2)c1)C1CCNCC1 , is the recorded pKi at or above 5? yes

Moving on to the next molecule: O=C(Nc1cccc(OCc2ccc(-c3cccc(F)c3F)cc2)c1)C1CCNCC1 yes

Moving on to the next molecule: N=C(N)N1CCC(C(=O)Nc2cccc(OCc3ccc(-c4ccccc4)cc3)c2)CC1 yes

Moving on to the next molecule: O=C(Nc1cccc(OCc2ccc(-c3ccccc3F)cc2)c1)C1CCNCC1 yes

Moving on to the next molecule: O=C(Nc1cccc(OCc2ccc(-c3cc(F)c(F)c(F)c3)cc2)c1)C1CCNCC1 yes

----------
- Species on record: Bos taurus
- experiment-notes: Inhibition of bovine alpha-chymotrypsin at 250 uM by amydolitic assay
Listed next: entries and their corresponding inhibition.

Known inhibition results, listed for orientation:
chemical-structure: O=C(Nc1cccc(OCc2ccc(-c3ccc(F)cc3F)cc2)c1)C1CCNCC1
inhibition: < 30%

chemical-structure: O=C(Nc1cccc(OCc2ccc(-c3ccccc3F)cc2)c1)C1CCNCC1
inhibition: < 30%

The record that follows has no inhibition shown yet.
Field request: inhibition | item: O=C(Nc1cccc(OCc2ccc(-c3ccc(F)cc3)cc2)c1)C1CCNCC1 < 30%

----------
Quick record: Ki, Coagulation factor X (Homo sapiens).
Numeric answer only, unit µM assumed.

compound: O=C(Nc1cccc(OCc2ccc(-c3ccccc3)cc2)c1)C1CCCNC1 (stereo not drawn)
endpoint-label: Ki
readout-number: 2.5

compound: O=C(Nc1cccc(OCc2ccc(-c3cc(F)ccc3F)cc2)c1)C1CCNCC1
endpoint-label: Ki
readout-number: 1.27

The record that follows has no Ki shown yet.
Test system Coagulation factor X (Homo sapiens); read-out Ki; what value for N=C(N)N1CCCC(C(=O)Nc2cccc(OCc3ccc(-c4ccccc4)cc3)c2)C1 (stereo not drawn) ? 2
